The reported measurements were obtained from paper PMC6277434.

Listed next: entries and their corresponding remaining activity at 0.156 µM.
Target Under Test: HMGCR (TM1-8)-GFP (Cricetulus griseus)
Sequence (P00347 1-346): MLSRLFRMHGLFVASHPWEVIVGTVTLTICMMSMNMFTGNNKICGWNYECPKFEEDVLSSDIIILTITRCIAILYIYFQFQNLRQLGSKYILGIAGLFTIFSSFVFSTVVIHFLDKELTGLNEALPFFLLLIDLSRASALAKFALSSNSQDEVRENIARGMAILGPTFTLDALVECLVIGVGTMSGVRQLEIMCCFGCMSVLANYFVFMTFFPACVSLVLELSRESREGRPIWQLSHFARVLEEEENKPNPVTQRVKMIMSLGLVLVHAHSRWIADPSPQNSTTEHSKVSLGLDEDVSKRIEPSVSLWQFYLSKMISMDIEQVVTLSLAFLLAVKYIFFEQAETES
Measurement Description: HMGCR (TM1-8)-GFP fluorescent assay (high-content imaging) in CHG cells
Setup Conditions: read-out: Mean (HMGCR (TM1-8)-GFP signal relative to 0 μM = 100)
Endpoint Label: remaining activity at 0.156 µM (%)

>>> observed_measurement("COCCC[C@@H](C)C1CCC2C3C(CC[C@@]21C)[C@@]1(C)CC[C@H](O)C(C)(C)C1=C[C@@H]3O (some centres unmarked)")
100
>>> observed_measurement("CC(O)CCC[C@@H](C)C1CCC2C3C(CC[C@@]21C)[C@@]1(C)CC[C@H](O)C(C)(C)C1=C[C@@H]3O (some centres unmarked)")
96.6
>>> observed_measurement("CCC(O)CC[C@@H](C)C1CCC2C3C(CC[C@@]21C)[C@@]1(C)CC[C@H](O)C(C)(C)C1=C[C@@H]3O (some centres unmarked)")
100
>>> observed_measurement("C[C@H](CCC(C)(C)O)C1CCC2C3C(CC[C@@]21C)[C@@]1(C)CC[C@H](O)C(C)(C)C1=C[C@@H]3O (some centres unmarked)")
88.3
>>> observed_measurement("C[C@H](CCC(=O)O)C1CCC2C3C(CC[C@@]21C)[C@@]1(C)CC[C@H](O)C(C)(C)C1=C[C@@H]3O (some centres unmarked)")
98.8
>>> observed_measurement("C=CCC(O)CCCCC[C@@H](C)C1CCC2C3C(CC[C@@]21C)[C@@]1(C)CC[C@H](O)C(C)(C)C1=C[C@@H]3O (some centres unmarked)")
76.4
>>> observed_measurement("CC(O)CC[C@@H](C)C1CCC2C3C(CC[C@@]21C)[C@@]1(C)CC[C@H](O)C(C)(C)C1=C[C@@H]3O (some centres unmarked)")
100
>>> observed_measurement("C=CCC(O)CC[C@@H](C)C1CCC2C3C(CC[C@@]21C)[C@@]1(C)CC[C@H](O)C(C)(C)C1=C[C@@H]3O (some centres unmarked)")
108
>>> observed_measurement("C[C@H](CCCCC(C)(C)O)C1CCC2C3C(CC[C@@]21C)[C@@]1(C)CC[C@H](O)C(C)(C)C1=C[C@@H]3O (some centres unmarked)")
78.6
>>> observed_measurement("COCCCC[C@@H](C)C1CCC2C3C(CC[C@@]21C)[C@@]1(C)CC[C@H](O)C(C)(C)C1=C[C@@H]3O (some centres unmarked)")
105
>>> observed_measurement("COC(=O)CC[C@@H](C)C1CCC2C3C(CC[C@@]21C)[C@@]1(C)CC[C@H](O)C(C)(C)C1=C[C@@H]3O (some centres unmarked)")
93
>>> observed_measurement("C=CCC(O)(CC=C)CCCC[C@@H](C)C1CCC2C3C(CC[C@@]21C)[C@@]1(C)CC[C@H](O)C(C)(C)C1=C[C@@H]3O (some centres unmarked)")
108
>>> observed_measurement("CCC(O)CCC[C@@H](C)C1CCC2C3C(CC[C@@]21C)[C@@]1(C)CC[C@H](O)C(C)(C)C1=C[C@@H]3O (some centres unmarked)")
91.3
>>> observed_measurement("C[C@H](CCCCO)C1CCC2C3C(CC[C@@]21C)[C@@]1(C)CC[C@H](O)C(C)(C)C1=C[C@@H]3O (some centres unmarked)")
96.8
